Assignment: determine reported pIC50 for the given molecules.
molecular target: androgen receptor in MDA-MB453-MMTV clone 54-19 cells (Homo sapiens, UniProt P10275); assay: AR antagonist cell assay (MMTV-luciferase reporter); format: cell-based; details: MDA-MB453-MMTV clone 54-19, inhibition of DHT induced luciferase, 17 hr; mean of multiple tests; read-out: AR Cell IC50
Sequence (P10275 whole entry Q868H, form open): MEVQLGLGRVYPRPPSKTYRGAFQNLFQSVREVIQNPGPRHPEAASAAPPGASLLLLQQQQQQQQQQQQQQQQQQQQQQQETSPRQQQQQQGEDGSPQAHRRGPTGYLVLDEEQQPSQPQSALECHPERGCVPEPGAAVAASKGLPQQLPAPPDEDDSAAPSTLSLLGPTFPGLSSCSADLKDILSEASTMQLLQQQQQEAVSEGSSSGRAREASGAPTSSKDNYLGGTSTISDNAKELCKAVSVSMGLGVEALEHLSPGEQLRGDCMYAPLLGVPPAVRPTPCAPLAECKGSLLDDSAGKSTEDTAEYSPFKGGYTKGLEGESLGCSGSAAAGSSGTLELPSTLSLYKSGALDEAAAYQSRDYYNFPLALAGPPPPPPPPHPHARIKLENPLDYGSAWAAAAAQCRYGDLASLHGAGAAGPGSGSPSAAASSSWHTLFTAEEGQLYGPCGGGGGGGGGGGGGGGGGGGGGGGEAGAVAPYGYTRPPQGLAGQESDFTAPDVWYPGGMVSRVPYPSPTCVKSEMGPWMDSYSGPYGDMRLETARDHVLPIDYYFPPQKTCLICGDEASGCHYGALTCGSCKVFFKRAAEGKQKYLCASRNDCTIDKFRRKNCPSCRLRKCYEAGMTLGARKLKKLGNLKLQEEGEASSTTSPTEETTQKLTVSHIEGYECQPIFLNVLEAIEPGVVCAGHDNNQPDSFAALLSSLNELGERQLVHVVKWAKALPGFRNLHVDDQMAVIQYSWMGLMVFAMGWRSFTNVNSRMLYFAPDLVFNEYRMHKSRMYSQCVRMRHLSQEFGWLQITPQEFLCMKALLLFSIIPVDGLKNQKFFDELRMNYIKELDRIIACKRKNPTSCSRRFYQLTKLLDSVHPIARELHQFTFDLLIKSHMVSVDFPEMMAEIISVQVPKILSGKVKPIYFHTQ
Give bare numbers, as −log10 of the molar value.

Cc1cccc(C)c1Oc1ccc(C#N)cc1Cl [Example 16] ... 6.79
Cc1ccc(Oc2ccc(C#N)c(C(F)(F)F)c2)c(C)c1 [Example 99] ... 6.05
Cc1cc(C)c(Oc2ccc(C#N)c(Cl)c2)c(C)c1 [Example 50] ... 6.67
CC(=O)c1cc(F)ccc1Oc1ccc(C#N)c(C(F)(F)F)c1 [Example 120] ... 6.44
N#Cc1ccc(Oc2ccc(F)cc2F)c(Cl)c1 [Example 25] ... 6.10
N#CCCc1ccc(Oc2ccc(C#N)c(Cl)c2)cc1 [Example 46] ... 6.71

Given Cc1ccc(C(C)C)cc1Oc1ccc(C#N)c(Cl)c1 [Example 53] , state its recorded pIC50.
6.21
